# Test Method Notes: reduced viability of JAK2V617F-dependent Ba/F3 cells, primary screen, JAK2V617F inhibitor project, cell-based, Ba/F3 EpoR-JAK2V617F, luminescence (AID 1446);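 further: cytokine-independent growth of Ba/F3 cells driven by EpoR plus mutant JAK2; 0% = DMSO-treated cells and 100% = JAK inhibitor I control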
# Assay Context: ATP luminescence, at 5.6 µM
Among all 220,000 compounds or so, about 2,400 (1.1%) were called active.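 How the source made its calls: active means inhibition above the campaign mean plus 3 SD over all tested compounds (cut at about 24% in these data); inactive means the rest.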 The full list was thinned out, with actives kept by preference.
// classify into active, inactive

Molecule	Class Name
COc1ccc(-n2c(-c3ccccc3)nc3ccccc3c2=O)cc1	inactive

Record request — test call for CCCCC(=O)N/N=C/c1c(O)n(CCC2=CCCCC2)c(=O)[nH]c1=O inactive

----------
# Test Method Notes: reduced viability of JAK2V617F-dependent Ba/F3 cells, primary screen, JAK2V617F inhibitor project, cell-based, Ba/F3 EpoR-JAK2V617F, luminescence (AID 1446);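 further: cytokine-independent growth of Ba/F3 cells driven by EpoR plus mutant JAK2; 0% = DMSO-treated cells and 100% = JAK inhibitor I control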
# Assay Context: ATP luminescence, at 5.6 µM, active compounds read high
Hit rate of the full screen: of about 220,000 compounds, about 2,400 (1.1%) were called active. The full list was thinned out, with actives kept by preference.
Value Type: inhibition

Known results for compounds:
Compound	Value Type	Value Observed
CC1=C(C(=O)Nc2ccccc2)S(=O)(=O)CCO1	inhibition	-1.56% (inactive)
O=c1[nH]c(=O)n(CCc2ccc(F)cc2)c(O)c1/C=N/N1CCCCC1	inhibition	-0.8% (inactive)
CCOP(=O)(OCC)C(NC(=O)c1ccc(OC)cc1)C(Cl)(Cl)Cl (stereo not given)	inhibition	1.2% (inactive)
O=c1[nH]c(=O)n(CCc2ccccc2)c(O)c1/C=N/N1CCOCC1	inhibition	-2.98% (inactive)
CC1=CC(=Cc2sc3ccccc3[n+]2C)C=C(C)O1	inhibition	101% (active)
CSc1nc2ccc(C)cc2c(=O)n1-c1cccnc1	inhibition	3.49% (inactive)
CCOc1ccc(-c2cc(C)[n+](CCN(CC)CC)c(-c3ccc(OCC)cc3)c2)cc1	inhibition	98.2% (active)
Cn1c(O)c(C(=Nc2ccc(F)cc2)c2ccccc2)c(=O)n(C)c1=O	inhibition	-3.28% (inactive)
CC1(C)Cc2c(C#N)c(N3CCNCC3)nc(-c3ccco3)c2CS1	inhibition	1.65% (inactive)
Cc1ccc(CN2CCCC(C(=O)c3ccc4c(c3)OCO4)C2)cc1C (stereo not given)	inhibition	-3.5% (inactive)

I would be grateful if you could share the reported inhibition for CC1=C2C(=O)C3C(CC=C4CC(OC5OC(O)C(O)C(O)C5CO)CCC43C)C2CCC12OC1CC(C)CNC1C2C (stereo not given) . 0.84% (inactive)

Record: CNC(=O)O/N=C(\N)Cc1csc2ccc(Cl)cc12 1.27% (inactive)

Record: O=c1[nH]c(CN2CC=C(c3ccccc3)CC2)nc2scc(-c3cccs3)c12 -4.83% (inactive)

Record: CN(C)CC1Oc2ccccc2OC1(O)c1ccccc1 (stereo not given) 91.1% (active)

Record: CN1CCN(/N=C/c2c[nH]c3ccccc23)CC1 -2.46% (inactive)
